SYSTEM UNDER TEST: BCL6 BTB domain (Homo sapiens (Human), UniProt P41182)
ASSAY PROTOCOL: Surface plasmon resonance (SPR) assay
Format: binding
PARTICULARS: BCL6 BTB domain captured on SA chip, single cycle kinetics
The following compounds are shown together with reported pKd values.
Scale explanation: pKd corresponds to minus log10 of a concentration expressed in moles per litre.

{"columns": ["COMPOUND", "SYSTEM UNDER TEST", "RECORDED RESULT"],
 "data": [
  ["C[C@H]1COCCN1c1cc(NC(=O)Cn2cc(-c3cc(F)c(O)c(C(N)=O)c3)c3c(=O)n(C)c(C(F)(F)F)nc32)c(Cl)cn1", "BCL6 BTB domain (Homo sapiens (Human), UniProt P41182)", 7.31],
  ["C[C@H]1COCCN1c1cc(NC(=O)Cn2cc(-c3cc(Cl)c(O)c(C(N)=O)c3)c3c(=O)n(C)c(-c4ccccc4)nc32)c(Cl)cn1", "BCL6 BTB domain (Homo sapiens (Human), UniProt P41182)", 6.49]
]}

Prompt: # query: pKd | item Cc1nc2c(c(-c3cc(F)c(O)c(C(N)=O)c3)cn2CC(=O)Nc2cc(N3CCN(C)C[C@@H]3C)ncc2Cl)c(=O)n1C | system: BCL6 BTB domain (Homo sapiens (Human), UniProt P41182)
Response: 8.35

Prompt: # query: pKd | item CN(C)c1cc(NC(=O)Cn2cc(-c3cc(C(N)=O)c(O)c(F)c3F)c3c(=O)n(C)cnc32)c(Cl)c(F)n1 | system: BCL6 BTB domain (Homo sapiens (Human), UniProt P41182)
Response: 7.79

Prompt: # query: pKd | item CN(C)C1CN(c2cc(NC(=O)Cn3cc(-c4cc(C(N)=O)c(O)c(F)c4F)c4c(=O)n(C)cnc43)c(Cl)cn2)C1 | system: BCL6 BTB domain (Homo sapiens (Human), UniProt P41182)
Response: 7.19

Prompt: # query: pKd | item Cn1cnc2c(c(-c3cc(Cl)c(O)c(C(N)=O)c3)cn2CC(=O)Nc2cc(N3CCOC(C(F)(F)F)C3)ncc2Cl)c1=O (stereo not drawn) [Compound I-69] | system: BCL6 BTB domain (Homo sapiens (Human), UniProt P41182)
Response: 7.14

Prompt: # query: pKd | item CN1CC2CCC(C1)N2c1cc(NC(=O)Cn2cc(-c3cc(Cl)c(O)c(C(N)=O)c3)c3c(=O)n(C)cnc32)c(Cl)cn1 | system: BCL6 BTB domain (Homo sapiens (Human), UniProt P41182)
Response: 7.87

Prompt: # query: pKd | item Cn1cnc2c(c(-c3cc(F)c(O)c(C(N)=O)c3)cn2CC(=O)Nc2cc(N3C4CCC3CN(CC(F)(F)F)C4)ncc2Cl)c1=O | system: BCL6 BTB domain (Homo sapiens (Human), UniProt P41182)
Response: 6.76

Prompt: # query: pKd | item CN1CCOC2CN(c3cc(NC(=O)Cn4cc(-c5cc(C(N)=O)c(O)c(F)c5F)c5c(=O)n(C)cnc54)c(Cl)cn3)CC21 (stereo not drawn) | system: BCL6 BTB domain (Homo sapiens (Human), UniProt P41182)
Response: 7.39

---

In what follows, each item is paired with its Kd for BCL6 BTB domain (Homo sapiens (Human)).
Give the number; nM is assumed, so skip it.

{"columns": ["COMPOUND", "VALUE UNITS", "Kd"],
 "data": [
  ["CN1CCC2(C1)CN(c1cc(NC(=O)Cn3cc(-c4cc(Cl)c(O)c(C(N)=O)c4)c4c(=O)n(C)cnc43)c(Cl)cn1)C2", "nM", 16.2],
  ["CN1CCOC2(CCN(c3cc(NC(=O)Cn4cc(-c5cc(C(N)=O)c(O)c(F)c5F)c5c(=O)n(C)cnc54)c(Cl)cn3)C2)C1 (stereo not shown)", "nM", 81.9],
  ["C[C@H]1COCCN1c1cc(NC(=O)Cn2cc(-c3cc(F)c(O)c(C(N)=O)c3)c3c(=O)n(C)cnc32)c(Cl)c(F)n1", "nM", 3.96],
  ["Cn1cnc2c(c(-c3cc(Cl)c(O)c(C(N)=O)c3)cn2CC(=O)Nc2cc3nccn3cc2Cl)c1=O", "nM", 2950]
]}

Prompt: I have this compound here, CC(C)CN1CCN(c2cc(NC(=O)Cn3cc(-c4cc(C(N)=O)c(O)c(F)c4F)c4c(=O)n(C)cnc43)c(Cl)c(F)n2)[C@@H](C)C1 , and I need its recorded Kd.
Response: 55.8

Prompt: I have this compound here, Cn1cnc2c(c(-c3cc(Cl)c(O)c(C(N)=O)c3)cn2CC(=O)Nc2cc(N3CCN4C(=O)OCC4C3)ncc2Cl)c1=O (stereo not shown) , and I need its recorded Kd.
Response: 17.6

Prompt: I have this compound here, Cn1cnc2c(c(-c3cc(Cl)c(O)c(C(N)=O)c3)cn2CC(=O)Nc2cc(N3CC4(CCOC4)C3)ncc2Cl)c1=O , and I need its recorded Kd.
Response: 40.1

Prompt: I have this compound here, Cn1ccc2c(c(-c3cc(F)c(O)c(C(N)=O)c3)cn2CC(=O)Nc2cc(N3CCOCC3)ncc2Cl)c1=O , and I need its recorded Kd.
Response: 317

Prompt: I have this compound here, CN1CCN(c2cc(NC(=O)Cn3cc(-c4cc(C(N)=O)c(O)c(F)c4F)c4c(=O)n(C)cnc43)c(Cl)cn2)C(C)(C)C1 , and I need its recorded Kd.
Response: 271

Prompt: I have this compound here, C[C@H]1COCCN1c1cc(NC(=O)Cn2cc(-c3cc(C(N)=O)c(O)cc3F)c3c(=O)n(C)cnc32)c(Cl)cn1 , and I need its recorded Kd.
Response: 115

Hello, the source for this data is patent US11518764B2, in case you need it.
